Data origin, for the record: ChEMBL document CHEMBL3351646

Target: UniProt Q5NUL3
Sequence (Q5NUL3 whole entry): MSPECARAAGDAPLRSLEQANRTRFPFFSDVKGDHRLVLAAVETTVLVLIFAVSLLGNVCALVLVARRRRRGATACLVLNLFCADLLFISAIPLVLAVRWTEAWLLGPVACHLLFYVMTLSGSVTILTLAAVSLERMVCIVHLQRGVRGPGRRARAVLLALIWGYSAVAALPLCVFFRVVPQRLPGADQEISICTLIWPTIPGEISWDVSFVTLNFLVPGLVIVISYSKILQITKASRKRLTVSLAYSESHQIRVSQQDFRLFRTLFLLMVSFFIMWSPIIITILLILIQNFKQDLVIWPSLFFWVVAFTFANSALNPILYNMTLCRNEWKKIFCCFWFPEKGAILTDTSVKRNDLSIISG
Test: Agonist activity at human FFA4 receptor expressed in U2OS cells assessed as maximal calcium mobilization after 24 hrs by FLIPR relative to GSK137647A
Format: functional, cell-based
// returns N unless Rmax is strictly below 80%, in which case Y

{"substance_smiles": "CC(=O)c1ccc(S(=O)(=O)Nc2c(C)cc(C)cc2C)cc1", "assigned_class": "N"}
{"substance_smiles": "Cc1cc(C)c(NS(=O)(=O)c2ccccc2)c(C)c1", "assigned_class": "N"}
{"substance_smiles": "COc1ccc(S(=O)(=O)Nc2c(C)cc(OC)cc2C)cc1", "assigned_class": "Y"}
{"substance_smiles": "C=CCc1cc(C)c(NS(=O)(=O)c2ccc(OC)cc2)c(C)c1", "assigned_class": "N"}
{"substance_smiles": "COc1cccc(S(=O)(=O)Nc2c(C)cc(C)cc2C)c1", "assigned_class": "Y"}
{"substance_smiles": "Cc1cc(C)c(NS(=O)(=O)c2ccc3c(c2)OCCCO3)c(C)c1", "assigned_class": "N"}
{"substance_smiles": "COC(=O)c1cccc(NS(=O)(=O)c2ccc(C)cc2)c1C", "assigned_class": "N"}
{"substance_smiles": "COc1ccc(S(=O)(=O)Nc2c(C)cc(F)cc2C)cc1", "assigned_class": "Y"}
{"substance_smiles": "Cc1ccc(S(=O)(=O)Nc2c(C)cc(C)cc2C)cc1", "assigned_class": "N"}
{"substance_smiles": "CCCCC/C=C\\C/C=C\\CCCCCCCC(=O)O", "assigned_class": "N"}
{"substance_smiles": "COc1cc(S(=O)(=O)Nc2c(C)cc(C)cc2C)ccc1Cl", "assigned_class": "Y"}
{"substance_smiles": "COc1ccc(S(=O)(=O)Nc2c(C)cc(C)cc2C)cc1OC", "assigned_class": "Y"}
{"substance_smiles": "COc1ccc(S(=O)(=O)Nc2c(C)cc(Cl)cc2C)cc1", "assigned_class": "N"}
{"substance_smiles": "COc1ccc(S(=O)(=O)Nc2c(C)cccc2C)cc1", "assigned_class": "Y"}
{"substance_smiles": "Cc1cc(C)c(NS(=O)(=O)c2ccc(OC(F)(F)F)cc2)c(C)c1", "assigned_class": "Y"}
{"substance_smiles": "Cc1cc(C)c(NS(=O)(=O)c2ccc(OC(C)C)cc2)c(C)c1", "assigned_class": "Y"}
{"substance_smiles": "Cc1cc(C)c(NS(=O)(=O)c2ccc(F)cc2)c(C)c1", "assigned_class": "N"}
{"substance_smiles": "Cc1cc(C)c(NS(=O)(=O)c2ccc(Cl)cc2)c(C)c1", "assigned_class": "N"}
{"substance_smiles": "CCCc1ccc(S(=O)(=O)Nc2c(C)cc(C)cc2C)cc1", "assigned_class": "Y"}
